Tested on: C. soldanellicola
Assay: organism not typed
Design: Broth microdilution MIC (Sensititre plates, ARIS 2X) against soil bacterial isolates
Details: soil, Isolate No.=3-7-16
PROPERTY: MIC

Please list MIC recorded for the compound CCN1CCN(C(=O)N[C@@H](C(=O)N[C@@H]2C(=O)N3[C@@H]2SC(C)(C)[C@@H]3C(=O)O)c2ccccc2)C(=O)C1=O [Piperacillin]
≤ 16 µg/mL

Give recorded MIC. O=C(O)c1cn(C2CC2)c2cc(N3CCNCC3)c(F)cc2c1=O [Ciprofloxacin]
≤ 0.5 µg/mL

State its MIC for this compound: CO/N=C(\C(=O)N[C@@H]1C(=O)N2C(C(=O)[O-])=C(C[N+]3(C)CCCC3)CS[C@H]12)c1csc(N)n1 [Cefepime]
≤ 4 µg/mL
